ASSAY TARGET: human CD47 (hCD47) (human, UniProt Q08722 19-139, limits assumed)
Sequence (Q08722 19-139 limits assumed): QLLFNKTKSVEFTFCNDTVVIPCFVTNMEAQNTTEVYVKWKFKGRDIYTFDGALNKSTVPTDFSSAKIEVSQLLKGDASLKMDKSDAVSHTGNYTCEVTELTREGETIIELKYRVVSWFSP
PROTOCOL NOTES: hCD47 binding OD over expression OD
Listed next: entries and their corresponding hCD47 binding (B/E).
Simply state the number, no unit and no words.

The cases that follow already have their hCD47 binding (B/E) on record.
BINDER	MEASURED PROPERTY	ENDPOINT RESULT
4RP6-1-10A (designed binder, tested as bacterial supernatant; also called S-16; hSIRPα-mt13 (IgV domain)) hSIRPα IgV domain mutant: EEELQVIQPDKSVSVAAGESAILHCTVTSLLPVGPIQWFRGAGPARELIYNQKDFLFPRVTTVSESTKRENRDFSISISNITPADAGTYYCVKFRKGSPDTEFKSGAGTELSVRAKPS	hCD47 binding (B/E)	2.89
2RP-1-3E (designed binder, tested as bacterial supernatant; also called S-7; hSIRPα-mt9 (IgV domain)) hSIRPα IgV domain mutant: EEELQVIQPDKSVSVAAGESAILTCTVTSLWPVGPIQWFRGAGPARELIYNQKGQNFPRVTTVSESTKRFNMDFSISISNITPADAGTYYCVKFRKGSPDTEFKSGAGTELSVRAKPS	hCD47 binding (B/E)	1.61

Now look at this entry.
Task: Let me know recorded hCD47 binding (B/E) for 4RP13-3-4D (designed binder, tested as bacterial supernatant; also called S-11; hSIRPα-mt11 (IgV domain)) hSIRPα IgV domain mutant: EEELQVIQPDKSVSVAAGESAILHCTVTSLLPVGPIQWFRGAGPARELIYNQKSKVFPRVTTVSESTKRRNMDFSISISNITPADAGTYYCVKFRKGSPDTEFKSGAGTELSVRAKPS , thanks.
Result: 1.7

Numbers sourced from patent US20250288643A1.
